EXPERIMENT DESCRIPTION: chemical genetic growth profiling, strain panel (AID 1159580);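 further: tested at 20 µM; growth read once vehicle control cultures reached saturation at 30 °C; lower values mean less growth of the strain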
ASSAY SETUP: S. cerevisiae deletion strains, growth OD, strain wtn01
The campaign covered roughly 5,500 compounds. About 2,000 (36%) were called active. About 18% were inconclusive and are not listed. No stated cut-off is given here; in the data, active means normalized growth mostly below about 0.91 (no sharp cut-off); inconclusive means no clear call, values can overlap the other calls; inactive means mostly above about 0.92. The list shows a part of the results.
Bench note: report the call from TRUE (active), FALSE (inactive)

{"columns": ["MOLECULE", "GROUP LABEL"],
 "data": [
  ["Clc1ccc(COC(Cn2ccnc2)c2ccc(Cl)cc2Cl)cc1 (stereo not given)", "TRUE"]
]}

Tell me the assay call for "COc1ccc2oc(-c3ccccc3)c(OC)c(=O)c2c1" please.
TRUE

Tell me the assay call for CC(=O)O[C@H]1CC[C@@]2(C)C(C[C@@H](OC(C)=O)[C@]3(C)C2CC[C@@]2(C)[C@H](c4ccoc4)OC(=O)[C@H]4O[C@]423)C1(C)C (stereo not given in full) please.
FALSE

Tell me the assay call for "Cc1oncc1C(=O)Nc1ccc(C(F)(F)F)cc1" please.
FALSE
